Data origin: patent US10246411B2

System: SR
observation type: GI50
Field: value (include unit after the number)

Record excerpt, results attached:
>>> result("COc1ccc(/C=C\\c2cc(OC)c(OC)c(OC)c2)c(NS(=O)(=O)c2ccc(Cl)cc2)c1O [17c]")
"30.6 nM"
>>> result("COc1ccc(S(=O)(=O)Nc2cc(/C=C\\c3cc(OC)c(OC)c(OC)c3)ccc2OC)cc1 [12a]")
"70.9 nM"
>>> result("COc1ccc(S(=O)(=O)Nc2cc(/C=C\\c3cc(OC)c(OC)c(OC)c3)cc(OC)c2OC)cc1 [13a]")
"35.2 nM"
>>> result("COc1cc(/C=C\\c2cc(OC)c(OC)c(OC)c2)cc(NS(=O)(=O)c2ccc(Cl)cc2)c1OC [13c]")
"406 nM"

# next molecule below
q: Form field: GI50 recorded for COc1ccc(S(=O)(=O)Nc2c(/C=C\c3cc(OC)c(OC)c(OC)c3)ccc(OC)c2O)cc1 [17a] with SR (enter value)
a: 31.9 nM
